Assay: Plasma protein binding in dog
observation.type: fraction unbound
// keep it numeric: no unit symbol after the value

Query :: # fraction unbound lookup, item O=C1NCc2nc(-c3c(F)cccc3F)cc(Nc3ccc(C(=O)N4CCCC4)cc3)c21
Result :: 0.13

---

Organism: Homo sapiens
Assay: Ratio Ki for inhibition of JAK1 (unknown origin) over TYK2 JH1 domain (unknown origin)
observation.type: Ratio Ki
Enter a number only.

These solved cases illustrate the format of a correct answer.
compound: O=C1NCc2nc(-c3c(F)cccc3F)cc(Nc3ccc(C(=O)N4CCOCC4)cc3)c21
Ratio Ki: 92
--
compound: O=C1NCc2nc(-c3c(F)cccc3F)cc(Nc3ccc(N4CCOCC4)cn3)c21
Ratio Ki: 160
--
compound: O=C1NCc2nc(-c3c(F)cccc3F)cc(Nc3ccc(N4CCC(O)CC4)cn3)c21
Ratio Ki: 160
--
compound: O=C1NCc2nc(-c3c(F)cccc3F)nc(Nc3ccc(CC(=O)N4CCOCC4)cc3)c21
Ratio Ki: 59
--
compound: NC(=O)c1ccc(NC(=O)c2ccc[nH]c2=O)cc1
Ratio Ki: 1.4
--
compound: CCNC(=O)C(C)(O)c1ccc(Nc2nc(-c3c(F)cccc3F)nc3c2C(=O)NC3)cc1 (stereo in doubt; 13b)
Ratio Ki: 27
--
compound: O=C1NCc2nc(-c3c(F)cccc3F)cc(Nc3ccc(N4CCOCC4=O)cn3)c21
Ratio Ki: 80
--
compound: O=C1NCc2nc(-c3c(F)cccc3F)nc(Nc3ccc(CC(=O)N4CCN(CC(F)F)CC4)cc3)c21
Ratio Ki: 31
--
compound: N#Cc1cccc(F)c1-c1cc(Nc2ccc(N3CCOCC3)cn2)c2c(n1)CNC2=O
Ratio Ki: 27
--
compound: NC(=O)c1cnc(-c2c(F)cccc2F)nc1Nc1ccc(CC(=O)O)cc1
Ratio Ki: 7.8

Query :: What Ratio Ki value was documented for this compound, CC(C)c1nc(Nc2ccc(C(=O)O)cc2)c2c(=O)[nH]ccc2n1 ?
Result :: 5.3

Query :: Item under review: O=C1NCc2nc(-c3c(F)cccc3F)cc(Nc3ccc(C(=O)N4CCOCC4)cn3)c21 . Reported Ratio Ki?
Result :: 16

Query :: Consider the compound shown here: CCNC(=O)c1ccc(Nc2cc(-c3c(F)cccc3F)nc3c2C(=O)NC3)nc1 What is its recorded Ratio Ki?
Result :: 84

Data provenance is ChEMBL document CHEMBL5104135.
